test system: Hh signaling pathway (Gli1 mRNA) in C3H10T1/2 cells; experiment: Gli1 mRNA down-regulation (qPCR) in OHC-stimulated C3H10T1/2 cells; format: cell-based, mouse; conditions: Mus musculus, C3H 10T1/2, mean ± SEM
recorded.metric: IC50 (µM)
Reply with just the number (in µM).

**Query** Query: IC50; subject: CC(C)COC[C@@H](C)[C@H]1CC[C@H]2[C@@H](OC(=O)c3cc(O)cc(O)c3)CCC[C@]12C
**Result** 1.8

**Query** Do the same for CC(C)COC[C@@H](C)[C@H]1CC[C@H]2[C@@H](OC(=O)c3cc(N)cc(N)c3)CCC[C@]12C please
**Result** 3.2

**Query** Do the same for C[C@H](COCC(C)(C)O)[C@H]1CC[C@H]2[C@@H](OC(=O)c3cccc(O)c3)CCC[C@]12C please
**Result** 2.8

**Query** Do the same for C[C@H](COCC(C)(C)O)[C@H]1CC[C@H]2[C@@H](OC(=O)c3cc(O)cc(O)c3)CCC[C@]12C please
**Result** 1.1

**Query** Do the same for COc1ccc(C(=O)O[C@H]2CCC[C@]3(C)[C@@H]([C@H](C)COCC(C)(C)O)CC[C@@H]23)cc1O please
**Result** 2.1

**Query** Do the same for CC(C)COC[C@@H](C)[C@H]1CC[C@H]2[C@@H](OC(=O)c3ccc(O)cc3)CCC[C@]12C please
**Result** 3.8

**Query** Do the same for C=C1CC[C@H](O)C/C1=C/C=C1\CCC[C@]2(C)[C@@H]([C@H](C)CCCC(C)C)CC[C@@H]12 please
**Result** 4.2

**Query** Do the same for CC(C)COC[C@@H](C)[C@H]1CC[C@H]2[C@@H](OC(=O)c3cccc(O)c3)CCC[C@]12C please
**Result** 2.3

---

test system: VDR signaling (Cyp24A1 mRNA) in C3H10T1/2 cells; test: Cyp24A1 mRNA up-regulation (qPCR) in C3H10T1/2 cells; type: cell-based, mouse; conditions: Mus musculus, C3H 10T1/2, 5 μM with OHCs 5 μM, 24 h, relative to DMSO (set to 1.0)
Threshold check on fold induction at 5 µM: at or above 20 gives Condition met, strictly below gives Condition not met.

**Query** Confirm if fold induction at 5 µM reported for the compound CC(C)COC[C@@H](C)[C@H]1CC[C@H]2[C@@H](OC(=O)c3ccc([N+](=O)[O-])cc3)CCC[C@]12C is 20 or above.
**Result** Condition met

**Query** Do the same for COc1cccc(C(=O)O[C@H]2CCC[C@]3(C)[C@@H]([C@H](C)COCC(C)C)CC[C@@H]23)c1 please
**Result** Condition not met

**Query** Do the same for C[C@H](COCC(C)(C)O)[C@H]1CC[C@H]2[C@@H](OC(=O)c3ccccc3)CCC[C@]12C please
**Result** Condition met

**Query** Do the same for C[C@H](COCC(C)(C)O)[C@H]1CC[C@H]2[C@@H](OC(=O)c3cccc(O)c3)CCC[C@]12C please
**Result** Condition met

**Query** Do the same for C[C@H](COCC(C)(C)O)[C@H]1CC[C@H]2[C@@H](OC(=O)c3ccc([N+](=O)[O-])cc3)CCC[C@]12C please
**Result** Condition met
